Compiled from multiple publications: pIC50 readings for UniProt Q96PD7.
pIC50: −log10 of the molar value.
Give 1 (yes) when the value for pIC50 is at least 7. Give 0 (no) when it is less.

Before answering, review these 5 worked examples.
COMPOUND	MEASURED ON	LABEL VALUE
Cc1cc(Oc2ncc(F)cc2OCC(F)(F)F)cc2cc(C(=O)NC3(C)CCS(=O)(=O)CC3)nn12	UniProt Q96PD7	1 (yes)
Cc1noc(C2CC2C(=O)NCc2ccc(-c3cccc(OC(F)(F)F)c3)c3c2CN(CC(=O)NC(C)(C)C)CC3)n1 (centres unmarked)	UniProt Q96PD7	0 (no)
CC(CNC(=O)c1ccc(-c2cccc(OC(F)(F)F)c2)c2c1CN(C(=O)NC(C)(C)C)CC2)c1cnco1 (centres unmarked)	UniProt Q96PD7	0 (no)
O=C(NC1CCS(=O)(=O)C1)c1ccc2c(-c3cccc(C4CC4)c3)cn(-c3ncc(F)cn3)c2c1 (single isomer, unassigned; enantiomer a)	UniProt Q96PD7	1 (yes)
C[C@H](NC(=O)c1ccc2c(-c3ccccc3Cl)nn(-c3ccc(F)cc3)c2c1)c1ccc(C(F)(F)F)nc1	UniProt Q96PD7	1 (yes)

// query Does the reported pIC50 for CC(C)c1c(Oc2ncc(Cl)cc2OCC(F)(F)F)ccc2nc(C(=O)NC3(C)CCS(=O)(=O)CC3)cn12 fall at or above the 7 mark?
// result 1 (yes)

// query Does the reported pIC50 for CC(C)(CN1CCOCC1)NC(=O)c1ccc2c(c1)c(-c1ccccc1Cl)cn2-c1ccc(F)cc1 fall at or above the 7 mark?
// result 0 (no)

// query Does the reported pIC50 for O=C(N[C@H](CO)c1ccc(C(F)(F)F)nc1)c1ccc2c(-c3ccccc3Cl)nn(-c3ccc(F)cc3)c2c1 fall at or above the 7 mark?
// result 1 (yes)

// query Does the reported pIC50 for Cc1c(C(=O)NC2(C)CS(=O)(=O)C2)ccc2c1c(C(C)C)nn2-c1cccc(OC(F)F)c1 fall at or above the 7 mark?
// result 1 (yes)

// query Does the reported pIC50 for CC1(NC(=O)c2ccc3c(c2)c(C(F)F)nn3-c2cccc(OC(F)F)c2)CS(=O)(=O)C1 fall at or above the 7 mark?
// result 1 (yes)

// query Does the reported pIC50 for Cc1noc(C2CC2C(=O)NCc2ccc(-c3cccc(OC(F)(F)F)c3)c3c2CN(CC(=O)NC2CCC2)CC3)n1 (centres unmarked) fall at or above the 7 mark?
// result 0 (no)

// query Does the reported pIC50 for COCC(C)NC(=O)c1ccc2c(c1)c(-c1ccccc1Cl)cn2-c1ccc(F)cc1 (centres unmarked) fall at or above the 7 mark?
// result 0 (no)

// query Does the reported pIC50 for Cc1sc(-c2ccccc2)nc1CNC(=O)c1ccc(-c2cccc(C(F)(F)F)c2)c2c1CN(C(=O)NC(C)(C)C)CC2 fall at or above the 7 mark?
// result 0 (no)

----------
Compiled from multiple publications: IC50 readings for human DGAT2 (hDGAT2) (Homo sapiens).
# do not omit the unit; it follows the number

As a guide, the following entries are already answered.
COMPOUND	VAL
Cc1c(Oc2nccnc2OCC(F)F)ccc2nc(C(=O)NC3(C)CCS(=O)(=O)CC3)cn12	42 nM
COc1cccc(-c2ccc(CNC(=O)[C@@H]3C[C@H]3c3ccccc3)c3c2CCN(C(=O)Nc2cccnc2)C3)c1 (relative stereo)	238 nM
CC(C)(C)NC(=O)N1CCc2c(-c3cnn(-c4ccccc4)c3)ccc(CNC(=O)[C@@H]3C[C@H]3c3ccccc3)c2C1 (relative stereo)	1170 nM

Please look at the following compound next.
// query Reported IC50 for Cc1c(OCc2ncc(F)cc2OCC(F)(F)F)ccc2nc(C(=O)NC3(C)CCS(=O)(=O)CC3)nn12 : what is it?
// result 1680 nM
